What follows is a record of Ki for Gonadotropin-releasing hormone receptor (Rattus norvegicus, UniProt P30969).
Non-standard residues stand in square brackets, D forms with d. Residues, ends and D or L forms follow the SMILES beside them. dNva(5-oxo-5-(4-MeOPh)) = COc1ccc(C(=O)CC[C@@H](N)C(=O)O)cc1; dPhe(4-Cl) = N[C@H](Cc1ccc(Cl)cc1)C(=O)O; d2Nal = N[C@H](Cc1ccc2ccccc2c1)C(=O)O; dCit = NC(=O)NCCC[C@@H](N)C(=O)O; d3Pal = N[C@H](Cc1cccnc1)C(=O)O
MEASURED_QUANTITY: Ki (nM)

# MOLECULE, MEASURED_QUANTITY, RESULT_NUMBER
records = [
    ("CC(=O)N[C@H](Cc1ccc2ccccc2c1)C(=O)N[C@H](Cc1ccc(Cl)cc1)C(=O)N[C@H](Cc1cccnc1)C(=O)N[C@@H](CO)C(=O)N[C@@H](Cc1ccc(O)cc1)C(=O)N[C@H](CCCNC(N)=O)C(=O)N[C@@H](CC(C)C)C(=O)N[C@@H](CCCNC(=N)N)C(=O)N1CCC[C@H]1C(=O)N[C@H](C)C(N)=O (Ac-[d2Nal][dPhe(4-Cl)][d3Pal]SY[dCit]LRP[dA]-NH2)", "Ki", 0.117),
    ("CC(=O)N[C@H](Cc1ccc2ccccc2c1)C(=O)N[C@H](Cc1ccc(Cl)cc1)C(=O)N[C@H](Cc1cccnc1)C(=O)N[C@@H](CO)C(=O)N(C)[C@@H](Cc1ccc(O)cc1)C(=O)N[C@H](CCCNC(N)=O)C(=O)N[C@@H](CC(C)C)C(=O)N[C@@H](CCCN=C(N)N)C(=O)N1CCC[C@H]1C(=O)N[C@H](C)C(N)=O", "Ki", 0.0135),
    ("COc1ccc(C(=O)CC[C@@H](NC(=O)[C@H](CCCN=C(N)N)NC(=O)[C@H](CO)NC(=O)[C@@H](Cc2cccnc2)NC(=O)[C@@H](Cc2ccc(Cl)cc2)NC(=O)[C@@H](Cc2ccc3ccccc3c2)NC(C)=O)C(=O)N[C@@H](CC(C)C)C(=O)N[C@@H](CCCN=C(N)N)C(=O)N2CCC[C@H]2C(=O)N[C@H](C)C(N)=O)cc1 (Ac-[d2Nal][dPhe(4-Cl)][d3Pal]SR[dNva(5-oxo-5-(4-MeOPh))]LRP[dA]-NH2)", "Ki", 0.0525),
]

* * *

- METHOD: Solubility was determined in 5% dextrose, pH 4.5
- Format: physicochemical
Non-standard residues stand in square brackets, D forms with d. Residues, ends and D or L forms follow the SMILES beside them. *: point of attachment. dPhe(4-Cl) = N[C@H](Cc1ccc(Cl)cc1)C(=O)O; d2Nal = N[C@H](Cc1ccc2ccccc2c1)C(=O)O; Lys(iPr) = CC(C)NCCCC[C@H](N)C(=O)O; NMeY = CN[C@@H](Cc1ccc(O)cc1)C(=O)O; dBta = N[C@H](Cc1csc2ccccc12)C(=O)O; dCit = NC(=O)NCCC[C@@H](N)C(=O)O; d3Pal = N[C@H](Cc1cccnc1)C(=O)O; Nicotinoyl = O=C(c1cccnc1)*

# MOLECULE, solubility
records = [
    ("CC(=O)N[C@H](Cc1ccc(Cl)cc1)C(=O)N[C@H](Cc1ccc(Cl)cc1)C(=O)N[C@H](Cc1csc2ccccc12)C(=O)N[C@@H](CO)C(=O)N(C)[C@@H](Cc1ccc(O)cc1)C(=O)N[C@H](CCCCN)C(=O)N[C@@H](CC(C)C)C(=O)N[C@@H](CCCN=C(N)N)C(=O)N1CCC[C@H]1C(=O)N[C@H](C)C(N)=O (Ac-[dPhe(4-Cl)][dPhe(4-Cl)][dBta]S[NMeY][dK]LRP[dA]-NH2)", "> 25 mg/mL"),
    ("CC(=O)N[C@H](Cc1ccc2ccccc2c1)C(=O)N[C@H](Cc1ccc(Cl)cc1)C(=O)N[C@H](Cc1cccnc1)C(=O)N[C@@H](CO)C(=O)N[C@@H](Cc1ccc(O)cc1)C(=O)N[C@H](CCCNC(N)=O)C(=O)N[C@@H](CC(C)C)C(=O)N[C@@H](CCCNC(=N)N)C(=O)N1CCC[C@H]1C(=O)N[C@H](C)C(N)=O (Ac-[d2Nal][dPhe(4-Cl)][d3Pal]SY[dCit]LRP[dA]-NH2)", "< 1 mg/mL"),
    ("CC(=O)N[C@H](Cc1ccc2ccccc2c1)C(=O)N[C@H](Cc1ccc(Cl)cc1)C(=O)N[C@H](Cc1cccnc1)C(=O)N[C@@H](CO)C(=O)N(C)[C@@H](Cc1ccc(O)cc1)C(=O)N[C@H](CCCCNC(=O)c1cccnc1)C(=O)N[C@@H](CC(C)C)C(=O)N[C@@H](CCCCNC(C)C)C(=O)N1CCC[C@H]1C(=O)N[C@H](C)C(N)=O (Ac-[d2Nal][dPhe(4-Cl)][d3Pal]S[NMeY][dK](Nicotinoyl)L[Lys(iPr)]P[dA]-NH2)", "> 20 mg/mL"),
]
